Data origin, for the record: patent US11873298B2

- TARGET: SCD5 (Homo sapiens, UniProt Q86SK9)
- Construct: host or cells: S. cerevisiae ole1Δ strain (W303 pdr1Δ pdr3Δ background), plasmid pRS316 with TDH3 promoter and CYC1 terminator
- Sequence (Q86SK9 whole entry): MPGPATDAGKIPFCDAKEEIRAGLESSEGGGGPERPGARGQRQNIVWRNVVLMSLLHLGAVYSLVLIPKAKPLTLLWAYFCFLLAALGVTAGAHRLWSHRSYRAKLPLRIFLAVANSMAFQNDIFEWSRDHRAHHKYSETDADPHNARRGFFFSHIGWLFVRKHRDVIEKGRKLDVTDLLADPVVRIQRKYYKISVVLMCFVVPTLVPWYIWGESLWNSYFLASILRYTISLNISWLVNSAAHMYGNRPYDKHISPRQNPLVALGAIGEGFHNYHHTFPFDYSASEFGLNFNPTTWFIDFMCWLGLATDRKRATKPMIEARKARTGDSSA
- PROTOCOL DESCRIPTION: Growth inhibition of humanized yeast strain expressing SCD5 as sole desaturase
- Format: cell-based
- RUN CONDITIONS: yeast strain expressing human SCD5 as sole desaturase; Table 8
pIC50: −log10 of the molar value.
Criterion: pIC50 meeting or surpassing 6. Met: MET. Not met: NOT MET.

[[record]]
compound = "CC(C)(C)OC(=O)N1CCC(c2noc(-c3cc(N4CCOCC4)c(F)cn3)n2)CC1"
target = "SCD5 (Homo sapiens, UniProt Q86SK9)"
class_name = "MET"

[[record]]
compound = "CC(C)(C)OC(=O)N1CCC(c2noc(-c3cc(N4CCC(F)(F)C4)c(F)cn3)n2)CC1"
target = "SCD5 (Homo sapiens, UniProt Q86SK9)"
class_name = "MET"

[[record]]
compound = "O=C(C1CCC1)N1CCC(c2noc(-c3ccnc([C@@H]4CCOC4)c3)n2)CC1"
target = "SCD5 (Homo sapiens, UniProt Q86SK9)"
class_name = "MET"

[[record]]
compound = "O=C(C1CC1)N1CCC(c2noc(-c3cc(C4CCOC4)ccn3)n2)CC1 (stereo not drawn)"
target = "SCD5 (Homo sapiens, UniProt Q86SK9)"
class_name = "NOT MET"

[[record]]
compound = "CC(C)(C)OC(=O)N1CCC(c2noc(-c3ccnc(-c4ccon4)c3)n2)CC1"
target = "SCD5 (Homo sapiens, UniProt Q86SK9)"
class_name = "NOT MET"

[[record]]
compound = "CC(C)(C)OC(=O)N1CCC(c2noc(-c3ccnc(N4CCC(F)(F)C4)c3)n2)CC1"
target = "SCD5 (Homo sapiens, UniProt Q86SK9)"
class_name = "MET"

[[record]]
compound = "CC(C)(C)OC(=O)N1CCC(c2noc(-c3ccc(C4CCOC4)nc3)n2)CC1 (stereo not drawn)"
target = "SCD5 (Homo sapiens, UniProt Q86SK9)"
class_name = "NOT MET"

[[record]]
compound = "COC(=O)N1CCC(c2noc(-c3cc(C4CCOC4)ncc3F)n2)CC1 (stereo not drawn)"
target = "SCD5 (Homo sapiens, UniProt Q86SK9)"
class_name = "MET"

[[record]]
compound = "COC(=O)N1CCC(c2nc(-c3ccnc(C4CCOC4)c3)no2)CC1 (stereo not drawn)"
target = "SCD5 (Homo sapiens, UniProt Q86SK9)"
class_name = "NOT MET"

[[record]]
compound = "CC1(OC(=O)N2CCC(c3noc(-c4cc(C5CCOC5)c(F)cn4)n3)CC2)CC1 (stereo not drawn)"
target = "SCD5 (Homo sapiens, UniProt Q86SK9)"
class_name = "MET"

[[record]]
compound = "O=C(OC1CCC1)N1CCC(c2noc(-c3ccn(C4COC4)c(=O)c3)n2)CC1"
target = "SCD5 (Homo sapiens, UniProt Q86SK9)"
class_name = "NOT MET"

[[record]]
compound = "CC(C)C(=O)N1CCC(c2noc(N3CCc4cnn(C5COC5)c4C3)n2)CC1"
target = "SCD5 (Homo sapiens, UniProt Q86SK9)"
class_name = "NOT MET"

[[record]]
compound = "CC1(OC(=O)N2CCC(c3noc(-c4cncc(N5CCC(F)(F)C5)c4)n3)CC2)CC1"
target = "SCD5 (Homo sapiens, UniProt Q86SK9)"
class_name = "NOT MET"

[[record]]
compound = "CC(C)C(=O)N1CCC(c2noc(-c3ccc(C#N)c(N4CCOCC4)c3)n2)CC1"
target = "SCD5 (Homo sapiens, UniProt Q86SK9)"
class_name = "MET"

[[record]]
compound = "CC1(OC(=O)N2CCC(c3noc(-c4cc(C5CCOC5)ccn4)n3)CC2)CC1 (stereo not drawn)"
target = "SCD5 (Homo sapiens, UniProt Q86SK9)"
class_name = "MET"

[[record]]
compound = "CC(C)(C)OC(=O)N1CCC(c2noc(-c3cc(C4CCOC4)c(F)cn3)n2)CC1 (stereo not drawn)"
target = "SCD5 (Homo sapiens, UniProt Q86SK9)"
class_name = "MET"

[[record]]
compound = "O=C(C1CCC1)N1CCC(c2noc(-c3ccnc(O[C@@H]4CCOC4)c3)n2)CC1"
target = "SCD5 (Homo sapiens, UniProt Q86SK9)"
class_name = "MET"

[[record]]
compound = "Cn1cc2c(n1)CN(c1nc(C3CCN(C(=O)OC(C)(C)C)CC3)no1)CC2"
target = "SCD5 (Homo sapiens, UniProt Q86SK9)"
class_name = "NOT MET"

[[record]]
compound = "O=C(C1CC1)N1CCC(c2noc(-c3cnc4cnn(C5CCOC5)c4c3)n2)CC1 (stereo not drawn)"
target = "SCD5 (Homo sapiens, UniProt Q86SK9)"
class_name = "MET"

[[record]]
compound = "CC(C)C(=O)N1CCC(c2noc(-c3cc(C4CCOC4)ccn3)n2)CC1 (stereo not drawn)"
target = "SCD5 (Homo sapiens, UniProt Q86SK9)"
class_name = "NOT MET"

[[record]]
compound = "CC(C)(C)OC(=O)N1CCC(c2noc(-c3ccc(F)c(N4CCOC5(CC5)C4)c3)n2)CC1"
target = "SCD5 (Homo sapiens, UniProt Q86SK9)"
class_name = "MET"

[[record]]
compound = "O=C(OC1CCC1)N1CCC(c2noc(-c3cc(C4CCOC4)ncn3)n2)CC1 (stereo not drawn)"
target = "SCD5 (Homo sapiens, UniProt Q86SK9)"
class_name = "MET"


====

- TARGET: Ole1 (Saccharomyces cerevisiae, UniProt P21147)
- Construct: expressed in transfected cells; host or cells: S. cerevisiae ole1Δ strain (W303 pdr1Δ pdr3Δ background), plasmid pRS316 with TDH3 promoter and CYC1 terminator
- Sequence (P21147 1-510): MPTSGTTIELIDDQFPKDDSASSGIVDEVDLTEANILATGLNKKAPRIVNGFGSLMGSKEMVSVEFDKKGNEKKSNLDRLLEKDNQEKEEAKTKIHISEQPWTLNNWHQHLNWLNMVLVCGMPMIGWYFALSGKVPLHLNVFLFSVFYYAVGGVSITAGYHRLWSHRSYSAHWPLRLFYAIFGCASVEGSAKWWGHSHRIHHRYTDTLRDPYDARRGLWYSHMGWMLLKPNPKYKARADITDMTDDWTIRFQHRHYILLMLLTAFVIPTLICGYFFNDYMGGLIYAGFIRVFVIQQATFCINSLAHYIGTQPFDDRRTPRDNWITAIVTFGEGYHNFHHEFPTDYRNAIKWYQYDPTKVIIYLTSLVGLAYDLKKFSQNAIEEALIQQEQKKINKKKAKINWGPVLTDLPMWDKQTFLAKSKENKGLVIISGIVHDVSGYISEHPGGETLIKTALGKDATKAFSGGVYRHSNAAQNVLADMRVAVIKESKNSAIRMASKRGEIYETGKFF
- PROTOCOL DESCRIPTION: Growth inhibition of yeast strain expressing Ole1 as sole desaturase
- Format: cell-based
- RUN CONDITIONS: yeast strain expressing Ole1 as sole desaturase
OBSERVATION TYPE: OLE1 % Max Inhibition (%)

[[record]]
molecule = "O=C([C@H]1CC(=O)N(c2ccccc2)C1)N1CCC(c2nc(N3CC4(COC4)C3)no2)CC1 [Compound 316]"
value_measured = 89.26

[[record]]
molecule = "Cc1nn(C)c2cc(-c3noc(C4(C)CCN(C(=O)CNC(=O)c5ccccc5)CC4)n3)ccc12 [Compound 227]"
value_measured = 1.24

[[record]]
molecule = "Cn1ncc2ccc(NC(=O)C3CCN(C(=O)C4CC(=O)N(c5ccccc5)C4)CC3)cc21 (stereo not shown) [Compound 213]"
value_measured = 94.72

[[record]]
molecule = "COc1ccc(-c2noc(C3CCN(C(=O)CNC(=O)N4CCCCC4)CC3)n2)cc1OC [Compound 143]"
value_measured = 95.01


====

- TARGET: SCD5 (Homo sapiens, UniProt Q86SK9)
- Construct: host or cells: S. cerevisiae ole1Δ strain (W303 pdr1Δ pdr3Δ background), plasmid pRS316 with TDH3 promoter and CYC1 terminator
- PROTOCOL DESCRIPTION: Growth inhibition of humanized yeast strain expressing SCD5 as sole desaturase
- Assay type: cell-based
- RUN CONDITIONS: humanized yeast strain expressing SCD5
OBSERVATION TYPE: IC50

[[record]]
compound = "Cn1c(=O)n(C)c2cc(-c3noc(C4CCN(C(=O)CNC(=O)c5ccncc5)CC4)n3)ccc21 [Compound 238]"
target = "SCD5 (Homo sapiens, UniProt Q86SK9)"
observation_type = "IC50"
value_measured = "30 µM"

[[record]]
compound = "COc1ccc(-c2noc(C3CCN(C(=O)c4ccc(C(C)C)cc4)CC3)n2)cc1OC [Compound 127]"
target = "SCD5 (Homo sapiens, UniProt Q86SK9)"
observation_type = "IC50"
value_measured = "> 45 µM"

[[record]]
compound = "CC(C)n1ncc2ccc(-c3noc(C4CCN(S(=O)(=O)C5CCCCC5)CC4)n3)cc21 [Compound 516]"
target = "SCD5 (Homo sapiens, UniProt Q86SK9)"
observation_type = "IC50"
value_measured = "> 45 µM"

[[record]]
compound = "O=C(C1CC(=O)N(c2ccccc2)C1)N1CCC(c2nc(N3CC4(COC4)C3)no2)CC1 (centres unmarked) [Compound 231]"
target = "SCD5 (Homo sapiens, UniProt Q86SK9)"
observation_type = "IC50"
value_measured = "> 45 µM"

[[record]]
compound = "CC(C)n1ncc2ccc(-c3noc(N4CCN(C(=O)OC(C)(C)C)CC4)n3)cc21 [Compound 349]"
target = "SCD5 (Homo sapiens, UniProt Q86SK9)"
observation_type = "IC50"
value_measured = "> 45 µM"

[[record]]
compound = "CCOc1ccc(-c2noc(C3CCN(C(=O)[C@H]4CC(=O)N(c5ccccc5)C4)CC3)n2)cc1OC [compound 85]"
target = "SCD5 (Homo sapiens, UniProt Q86SK9)"
observation_type = "IC50"
value_measured = "> 45 µM"

[[record]]
compound = "Cc1nn(C)c2cc(-c3noc(C4CCN(C(=O)CNC(=O)c5cccc(C#N)c5)CC4(F)F)n3)ccc12 (centres unmarked) [Compound 604]"
target = "SCD5 (Homo sapiens, UniProt Q86SK9)"
observation_type = "IC50"
value_measured = "6.12 µM"

[[record]]
compound = "COc1ccc(-c2noc(C3CCNCC3)n2)cc1OC [Compound 488]"
target = "SCD5 (Homo sapiens, UniProt Q86SK9)"
observation_type = "IC50"
value_measured = "> 45 µM"

